# targetOrSystem: human PDE9A2 (Homo sapiens)
# Construct: made in house; host or cells: Sf9 insect cells (infected); crude lysate used as enzyme source
# measurementProtocol: PDE9A2 enzymatic activity assay (scintillation proximity assay, SPA)
# Type: biochemical
# cond: read-out: % inhibition of PDE9A2 (at 10 micromolar concentration), 10 micromolar concentration; values above 100% adjusted to 100%
inhibition at 10 µM by entry:
propertyMeasured: inhibition at 10 µM (%)

                                    compound               targetorsystem  result
 0  O=c1[nH]c(CC2CCCC2)nc2c1cnn2C1CCCN(CC(F)F)C1 (racemic) [Example 193]  human PDE9A2 (Homo sapiens)      99
 1  O=c1[nH]c(Cc2ccccc2O[C@H]2CCOC2)nc2c1cnn2C1CCOCC1 [Example 58]  human PDE9A2 (Homo sapiens)      96
 2  CN(C)C(=O)N1CCCC(n2ncc3c(=O)[nH]c(Cc4ccccc4OC(F)(F)F)nc32)C1 (racemic) [Example 161]  human PDE9A2 (Homo sapiens)      95
 3  O=c1[nH]c(Cc2ccccn2)nc2c1cnn2C1CCCCO1 (racemic) [Example 145]  human PDE9A2 (Homo sapiens)      84
 4  CC(c1ccccc1)c1nc2c(cnn2C2CCOCC2)c(=O)[nH]1 (racemic) [Example 14]  human PDE9A2 (Homo sapiens)      96
 5  O=c1[nH]c(CC2CCCC2)nc2c1cnn2C1CCCN(CC(F)(F)F)C1 (racemic) [Example 191]  human PDE9A2 (Homo sapiens)      92
 6  CC(=O)N1CCCC(n2ncc3c(=O)[nH]c(Cc4cccc(C(F)(F)F)c4)nc32)C1 (racemic) [Example 184]  human PDE9A2 (Homo sapiens)      97
 7  CCC(Cc1nc2c(cnn2C2CCCN(C(=O)c3ccccc3)C2)c(=O)[nH]1)C(F)(F)F (mixture of isomers) [Example 174]  human PDE9A2 (Homo sapiens)      89
 8  Cc1nc(Cc2nc3c(cnn3C3CCOCC3)c(=O)[nH]2)c(C)s1 [Example 24]  human PDE9A2 (Homo sapiens)      86
 9  O=C(c1ccccc1)N1CCC(n2ncc3c(=O)[nH]c(Cc4ccccc4OC(F)(F)F)nc32)C1 (racemic) [Example 169]  human PDE9A2 (Homo sapiens)      86
10  CC1COCCC1n1ncc2c(=O)[nH]c(CC3CCCC3)nc21 (racemic) [Example 132-2]  human PDE9A2 (Homo sapiens)     100
11  COc1cccc(Cl)c1Cc1nc2c(cnn2C2CCOCC2)c(=O)[nH]1 [Example 33]  human PDE9A2 (Homo sapiens)      97
12  COc1ccccc1Cc1nc2c(cnn2C2CCOC2)c(=O)[nH]1 (racemic) [Example 83]  human PDE9A2 (Homo sapiens)      96
13  O=c1[nH]c(Cc2ccccc2C(F)(F)F)nc2c1cnn2C1CCOC1 (racemic) [Example 86]  human PDE9A2 (Homo sapiens)      95
14  O=c1[nH]c(CC2CCCCC2)nc2c1cnn2C1CCCOC1 (racemic) [Example 103]  human PDE9A2 (Homo sapiens)      99
15  COc1ccccc1Cc1nc2c(cnn2C2CCOCC2)c(=O)[nH]1 [Example 49]  human PDE9A2 (Homo sapiens)      98
16  CC(=O)N1CCCC(n2ncc3c(=O)[nH]c(CC(C)C)nc32)C1 (racemic) [Example 189]  human PDE9A2 (Homo sapiens)      90

###

# targetOrSystem: human PDE9A2 (Homo sapiens, UniProt O76083)
# Construct: made in house; host or cells: Sf9 insect cells (infected); crude lysate used as enzyme source
# Sequence (O76083 1-533 isoform O76083-2): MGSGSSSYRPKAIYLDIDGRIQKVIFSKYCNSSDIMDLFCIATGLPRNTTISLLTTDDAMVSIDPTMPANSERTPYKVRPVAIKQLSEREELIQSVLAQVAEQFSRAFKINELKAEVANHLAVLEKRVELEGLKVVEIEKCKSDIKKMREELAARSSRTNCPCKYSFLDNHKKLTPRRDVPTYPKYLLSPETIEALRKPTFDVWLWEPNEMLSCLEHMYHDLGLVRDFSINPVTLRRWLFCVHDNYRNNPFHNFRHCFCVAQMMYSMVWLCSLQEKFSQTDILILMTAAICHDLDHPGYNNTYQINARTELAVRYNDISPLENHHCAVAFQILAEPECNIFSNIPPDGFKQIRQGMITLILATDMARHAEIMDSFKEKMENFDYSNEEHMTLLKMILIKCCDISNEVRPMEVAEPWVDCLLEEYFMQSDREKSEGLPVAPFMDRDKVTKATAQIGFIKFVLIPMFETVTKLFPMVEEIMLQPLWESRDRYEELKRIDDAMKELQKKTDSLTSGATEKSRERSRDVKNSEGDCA
# measurementProtocol: PDE9A2 enzymatic activity assay (scintillation proximity assay, SPA)
# Assay type: biochemical
# cond: read-out: % inhibition of PDE9A2 (at 10 micromolar concentration), 10 micromolar concentration; values above 100% adjusted to 100%
inhibition at 10 µM by entry:
propertyMeasured: inhibition at 10 µM (%)

>>> df
                                    compound  result
 0  O=c1[nH]c(CC2CCCC2)nc2c1cnn2C1CCCOC1 (racemic) [Example 90]     100
 1  O=c1[nH]c(Cc2ccccn2)nc2c1cnn2C1CCOC1 (racemic) [Example 124]      95
 2  N#Cc1ccccc1Cc1nc2c(cnn2C2CCOC2)c(=O)[nH]1 (racemic) [Example 88]      96
 3  CC(=O)N1CCC(n2ncc3c(=O)[nH]c(CC4CCCC4)nc32)C1 (racemic) [Example 165]      99
 4  O=c1[nH]c(C(F)(F)c2ccccc2)nc2c1cnn2C1CCOCC1 [Example 13]      90
 5  O=C(Oc1ccc(F)cc1)N1CCCC(n2ncc3c(=O)[nH]c(Cc4ccccc4)nc32)C1 (racemic) [Example 185]     100
 6  CN1CCCC(n2ncc3c(=O)[nH]c(CC4CCC4)nc32)C1 (racemic) [Example 218]      88
 7  CC(=O)N1CCCC(n2ncc3c(=O)[nH]c(Cc4ccccn4)nc32)C1 (racemic) [Example 176]      85
 8  Cc1cccnc1Cc1nc2c(cnn2C2CCOC2)c(=O)[nH]1 (racemic) [Example 87]      86
 9  CC(C)Cc1nc2c(cnn2C2CCOCC2C)c(=O)[nH]1 (racemic) [Example 132-1]      97
10  CC1CC(n2ncc3c(=O)[nH]c(CC4CCCC4)nc32)CCO1 (racemic) [Example 112]      97
11  CCC(Cc1nc2c(cnn2C2CCOC2)c(=O)[nH]1)C(F)(F)F (mixture of isomers) [Example 77]      89
12  O=c1[nH]c(Cc2ccccc2)nc2c1cnn2C1CCNCC1 [Example 202]      83
13  Cc1ccccc1Cc1nc2c(cnn2C2CCOCC2)c(=O)[nH]1 [Example 2]      99
14  CN1CCCC(n2ncc3c(=O)[nH]c(Cc4ccccc4F)nc32)C1 (racemic) [Example 217]      97
15  O=c1[nH]c(Cc2cc(C(F)(F)F)ccn2)nc2c1cnn2C1CCOCC1 [Example 65]      97
16  CC(C)(C)OC(=O)N1CCCC(n2ncc3c(=O)[nH]c(Cc4ccccc4)nc32)C1 (racemic) [Example 18]      99

###

# targetOrSystem: human PDE9A2 (Homo sapiens, UniProt O76083)
# Construct: made in house; host or cells: Sf9 insect cells (infected); crude lysate used as enzyme source
# measurementProtocol: PDE9A2 enzymatic activity assay (scintillation proximity assay, SPA)
# Type: biochemical
# cond: read-out: % inhibition of PDE9A2 (at 10 micromolar concentration), 10 micromolar concentration; values above 100% adjusted to 100%
propertyMeasured: inhibition at 10 µM

                                   molecule  result
0         CCCc1nc2c(cnn2C2CCOCC2)c(=O)[nH]1     96%
1  CC(=O)N1CCC(n2ncc3c(=O)[nH]c(Cc4ccccc4OC(F)(F)F)nc32)C1 (racemic)     98%
2  CC(C)Cc1nc2c(cnn2C2CCCN(C(=O)c3ccccc3)C2)c(=O)[nH]1 (racemic)     93%
3   O=c1[nH]c(Cc2ccccc2Br)nc2c1cnn2C1CCOCC1     99%

###

# targetOrSystem: human PDE9A2 (Homo sapiens, UniProt O76083)
# Construct: made in house; host or cells: Sf9 insect cells (infected); crude lysate used as enzyme source
# measurementProtocol: PDE9A2 enzymatic activity assay (scintillation proximity assay, SPA)
# Type: biochemical
# cond: read-out: % inhibition of PDE9A2 (at 10 micromolar concentration), 10 micromolar concentration; values above 100% adjusted to 100%
inhibition at 10 µM by entry:
propertyMeasured: inhibition at 10 µM (%)

In [3]: df
Out[3]:
                                    molecule  unittag  result
 0  COc1ccc(Cc2nc3c(cnn3C3CCOCC3)c(=O)[nH]2)cc1F [Example 27]        %      99
 1  Cc1cccnc1Cc1nc2c(cnn2C2CCCOC2)c(=O)[nH]1 (racemic) [Example 100]        %      93
 2  O=c1[nH]c(C(F)c2ccccc2)nc2c1cnn2C1CCOCC1 (racemic) [Example 12]        %      97
 3  O=c1[nH]c(Cc2cccc(C(F)(F)F)n2)nc2c1cnn2C1CCOCC1 [Example 64]        %      97
 4  CN1CCC(n2ncc3c(=O)[nH]c(Cc4ccccc4OC(F)(F)F)nc32)C1 (racemic) [Example 211]        %      99
 5  N#Cc1cccc(Cc2nc3c(cnn3C3CCOC3)c(=O)[nH]2)c1 (racemic) [Example 89]        %      95
 6  CCOc1ccccc1Cc1nc2c(cnn2C2CCCN(C(=O)c3ccccc3)C2)c(=O)[nH]1 (racemic) [Example 178]        %      92
 7  COc1ccccc1CCc1nc2c(cnn2C2CCOCC2)c(=O)[nH]1 [Example 40-3]        %     100
 8  CC(C)Cc1nc2c(cnn2C2CCCOC2)c(=O)[nH]1 (racemic) [Example 92]        %      98
 9  O=c1[nH]c(Cc2ccccc2C(F)(F)F)nc2c1cnn2C1CCOCC1 [Example 45]        %      98
10  O=c1[nH]c(Cc2cccc(Cl)c2)nc2c1cnn2C1CCOCC1 [Example 39]        %      99
11  CC(=O)N1CCCC(n2ncc3c(=O)[nH]c(Cc4ccccc4F)nc32)C1 (racemic) [Example 187]        %      96
12  O=c1[nH]c(CC2CCCCCC2)nc2c1cnn2C1CCOCC1 [Example 1]        %     100
13  O=c1[nH]c(CC2CCC2)nc2c1cnn2C1CCCOC1 (racemic) [Example 96]        %      99
14  O=c1[nH]c(Cc2ccc(F)cc2)nc2c1cnn2C1CCOCC1 [Example 140]        %     100
15  O=c1[nH]c(Cc2c(F)cccc2Cl)nc2c1cnn2C1CCOCC1 [Example 6]        %      98
16  O=c1[nH]c(CC2CCOCC2)nc2c1cnn2C1CCOCC1 [Example 41]        %      92
17  O=c1[nH]c(Cc2ccccc2OC(F)(F)F)nc2c1cnn2C1CCNCC1 [Example 203]        %      84
18  O=C(Oc1ccc(F)cc1)N1CCCC(n2ncc3c(=O)[nH]c(CC4CCCC4)nc32)C1 (racemic) [Example 162]        %      98
19  CCOc1ccccc1Cc1nc2c(cnn2C2CCOCC2)c(=O)[nH]1 [Example 52]        %     100
20  O=c1[nH]c(Cc2ccccn2)nc2c1cnn2C1CCCOC1 (racemic) [Example 94]        %      96
21  O=c1[nH]c(CCC2CCCC2)nc2c1cnn2C1CCOCC1 [Example 9]        %      99
22  CN1CCC(n2ncc3c(=O)[nH]c(Cc4ccccc4)nc32)CC1 [Example 148]        %      86
23  O=c1[nH]c(CC2CCCC2)nc2c1cnn2C1CCCNC1 (racemic) [Example 196]        %      91
24  O=c1[nH]c(Cc2ncccn2)nc2c1cnn2C1CCOCC1 [Example 66]        %      91
25  CC(Cc1nc2c(cnn2C2CCOCC2)c(=O)[nH]1)C(F)(F)F (single isomer, unassigned) [Example 131]        %      97
26  CCOc1ccccc1Cc1nc2c(cnn2C2CCCN(C(=O)OC(C)(C)C)C2)c(=O)[nH]1 (racemic) [Example 30]        %     100
27  CC(Cc1nc2c(cnn2C2CCOCC2)c(=O)[nH]1)C(F)(F)F (racemic) [Example 46]        %     100
28  CC(=O)N1CCC(Oc2ccccc2Cc2nc3c(cnn3C3CCOCC3)c(=O)[nH]2)CC1 [Example 68]        %      97
29  O=c1[nH]c(Cc2cccc(C(F)(F)F)c2)nc2c1cnn2C1CCCCO1 (racemic) [Example 147-3]        %      95
30  O=C(c1ccccc1)N1CCC(n2ncc3c(=O)[nH]c(CC4CCCC4)nc32)C1 (racemic) [Example 167]        %      93
31  CC(=O)N1CCC(n2ncc3c(=O)[nH]c(Cc4ccccc4)nc32)C1 (racemic) [Example 172]        %     100
32  O=c1[nH]c(CCCC(F)(F)F)nc2c1cnn2C1CCOCC1 [Example 25]        %      96

Source of measurements: patent US8623879B2
